src = patent US20200253929A1

- Assay System: Cav1.2 channel (Homo sapiens, UniProt Q13936)
- Construct: expressed in transfected cells; host or cells: HEK293
- Sequence (P54289 25-1103): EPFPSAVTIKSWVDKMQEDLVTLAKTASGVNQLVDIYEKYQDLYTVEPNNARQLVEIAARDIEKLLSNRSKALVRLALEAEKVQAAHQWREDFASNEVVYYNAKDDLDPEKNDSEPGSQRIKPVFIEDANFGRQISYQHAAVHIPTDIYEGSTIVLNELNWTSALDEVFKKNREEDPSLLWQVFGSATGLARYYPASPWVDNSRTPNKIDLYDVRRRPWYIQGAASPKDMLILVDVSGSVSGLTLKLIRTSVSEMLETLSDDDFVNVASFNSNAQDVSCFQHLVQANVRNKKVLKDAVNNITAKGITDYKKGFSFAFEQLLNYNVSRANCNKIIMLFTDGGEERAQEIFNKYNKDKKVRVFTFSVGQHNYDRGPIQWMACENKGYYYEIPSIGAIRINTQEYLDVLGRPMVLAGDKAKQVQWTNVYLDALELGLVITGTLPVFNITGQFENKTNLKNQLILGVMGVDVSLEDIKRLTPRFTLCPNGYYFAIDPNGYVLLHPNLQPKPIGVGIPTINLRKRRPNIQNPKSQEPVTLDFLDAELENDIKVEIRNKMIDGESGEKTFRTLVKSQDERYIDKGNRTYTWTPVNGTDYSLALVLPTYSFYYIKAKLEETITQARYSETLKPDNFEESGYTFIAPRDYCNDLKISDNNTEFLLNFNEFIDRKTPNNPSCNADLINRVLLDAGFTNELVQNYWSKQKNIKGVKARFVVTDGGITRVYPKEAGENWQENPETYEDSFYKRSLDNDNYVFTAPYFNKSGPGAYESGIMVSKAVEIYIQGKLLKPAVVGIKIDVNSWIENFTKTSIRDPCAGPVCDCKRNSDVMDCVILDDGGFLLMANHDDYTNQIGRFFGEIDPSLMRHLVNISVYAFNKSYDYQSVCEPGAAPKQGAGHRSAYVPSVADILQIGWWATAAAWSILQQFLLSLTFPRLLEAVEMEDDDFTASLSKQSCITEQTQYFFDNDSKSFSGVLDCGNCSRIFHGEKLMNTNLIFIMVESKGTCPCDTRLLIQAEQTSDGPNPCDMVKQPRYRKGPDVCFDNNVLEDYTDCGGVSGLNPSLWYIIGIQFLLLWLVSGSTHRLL
- Sequence (Q08289 whole entry, further chain): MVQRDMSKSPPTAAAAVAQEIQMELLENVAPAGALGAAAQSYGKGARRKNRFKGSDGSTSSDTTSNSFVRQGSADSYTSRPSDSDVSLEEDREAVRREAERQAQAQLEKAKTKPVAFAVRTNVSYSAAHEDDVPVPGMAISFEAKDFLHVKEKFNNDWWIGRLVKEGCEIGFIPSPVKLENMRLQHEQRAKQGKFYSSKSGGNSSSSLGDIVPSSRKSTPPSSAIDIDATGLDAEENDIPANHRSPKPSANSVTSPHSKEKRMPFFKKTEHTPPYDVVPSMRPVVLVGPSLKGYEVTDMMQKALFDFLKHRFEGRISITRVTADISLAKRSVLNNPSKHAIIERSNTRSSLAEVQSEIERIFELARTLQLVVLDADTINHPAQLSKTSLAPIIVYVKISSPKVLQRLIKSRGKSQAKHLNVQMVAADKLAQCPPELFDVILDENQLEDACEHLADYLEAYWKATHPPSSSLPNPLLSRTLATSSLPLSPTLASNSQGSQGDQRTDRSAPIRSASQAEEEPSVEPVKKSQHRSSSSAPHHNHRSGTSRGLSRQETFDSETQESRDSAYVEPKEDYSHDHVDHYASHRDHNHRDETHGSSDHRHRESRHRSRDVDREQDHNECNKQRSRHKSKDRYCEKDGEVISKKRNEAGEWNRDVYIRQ
- Sequence (Q13936 whole entry): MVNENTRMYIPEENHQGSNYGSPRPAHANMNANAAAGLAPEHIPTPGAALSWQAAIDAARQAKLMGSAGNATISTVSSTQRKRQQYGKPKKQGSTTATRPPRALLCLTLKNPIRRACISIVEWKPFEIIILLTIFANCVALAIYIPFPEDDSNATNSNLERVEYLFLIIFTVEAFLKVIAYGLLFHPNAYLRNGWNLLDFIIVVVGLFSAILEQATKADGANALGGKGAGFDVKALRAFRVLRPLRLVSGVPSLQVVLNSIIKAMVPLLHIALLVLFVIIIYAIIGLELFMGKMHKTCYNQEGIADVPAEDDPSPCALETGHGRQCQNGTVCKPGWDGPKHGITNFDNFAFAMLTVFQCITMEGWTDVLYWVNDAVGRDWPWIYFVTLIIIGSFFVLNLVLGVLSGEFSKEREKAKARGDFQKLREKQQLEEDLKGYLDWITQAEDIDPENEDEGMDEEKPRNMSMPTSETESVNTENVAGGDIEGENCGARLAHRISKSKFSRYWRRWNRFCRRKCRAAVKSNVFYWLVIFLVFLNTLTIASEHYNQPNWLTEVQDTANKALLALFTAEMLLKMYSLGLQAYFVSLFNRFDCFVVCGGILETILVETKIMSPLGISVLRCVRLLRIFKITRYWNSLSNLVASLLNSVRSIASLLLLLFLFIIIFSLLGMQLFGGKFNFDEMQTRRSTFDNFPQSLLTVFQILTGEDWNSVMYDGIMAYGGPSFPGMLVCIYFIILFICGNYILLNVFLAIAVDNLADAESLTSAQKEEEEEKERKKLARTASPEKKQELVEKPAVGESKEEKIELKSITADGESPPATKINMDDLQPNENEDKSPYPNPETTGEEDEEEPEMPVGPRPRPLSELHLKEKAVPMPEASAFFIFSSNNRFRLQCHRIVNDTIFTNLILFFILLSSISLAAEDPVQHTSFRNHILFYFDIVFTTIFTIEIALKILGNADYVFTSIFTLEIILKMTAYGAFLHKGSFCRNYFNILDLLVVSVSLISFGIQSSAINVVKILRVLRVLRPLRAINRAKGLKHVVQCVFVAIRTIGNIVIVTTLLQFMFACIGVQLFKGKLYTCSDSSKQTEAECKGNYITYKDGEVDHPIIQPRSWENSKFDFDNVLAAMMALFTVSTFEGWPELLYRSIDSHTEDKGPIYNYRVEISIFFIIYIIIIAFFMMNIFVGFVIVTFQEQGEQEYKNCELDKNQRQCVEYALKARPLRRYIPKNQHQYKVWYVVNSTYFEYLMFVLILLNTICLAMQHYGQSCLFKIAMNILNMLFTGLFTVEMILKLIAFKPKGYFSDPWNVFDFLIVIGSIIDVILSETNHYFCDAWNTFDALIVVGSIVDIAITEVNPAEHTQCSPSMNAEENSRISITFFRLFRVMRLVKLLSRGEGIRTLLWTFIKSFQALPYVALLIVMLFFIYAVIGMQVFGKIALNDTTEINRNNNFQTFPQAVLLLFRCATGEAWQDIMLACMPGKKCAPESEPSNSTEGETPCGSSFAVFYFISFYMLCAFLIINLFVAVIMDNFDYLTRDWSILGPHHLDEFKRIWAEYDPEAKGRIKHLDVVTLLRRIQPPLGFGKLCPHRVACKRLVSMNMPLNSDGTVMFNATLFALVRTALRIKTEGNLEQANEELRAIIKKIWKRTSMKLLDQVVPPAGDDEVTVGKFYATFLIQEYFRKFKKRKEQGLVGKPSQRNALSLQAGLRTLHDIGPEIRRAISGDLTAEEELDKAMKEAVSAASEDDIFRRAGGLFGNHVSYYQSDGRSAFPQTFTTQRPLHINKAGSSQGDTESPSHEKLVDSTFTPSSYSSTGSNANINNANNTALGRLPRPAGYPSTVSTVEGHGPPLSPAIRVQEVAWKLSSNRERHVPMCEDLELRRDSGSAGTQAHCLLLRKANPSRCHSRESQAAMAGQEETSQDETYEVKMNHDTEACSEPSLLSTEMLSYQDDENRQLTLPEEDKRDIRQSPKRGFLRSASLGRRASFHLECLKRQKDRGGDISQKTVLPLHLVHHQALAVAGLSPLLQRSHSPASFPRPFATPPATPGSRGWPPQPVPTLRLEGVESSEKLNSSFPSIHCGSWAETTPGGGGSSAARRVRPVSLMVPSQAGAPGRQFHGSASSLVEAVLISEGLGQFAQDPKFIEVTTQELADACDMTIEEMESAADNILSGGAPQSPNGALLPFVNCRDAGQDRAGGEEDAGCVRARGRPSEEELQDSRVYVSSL
- Experiment Description: Cardiotoxicity fluorescence-based assay, Cav1.2 channel
- Type: cell-based
- Experimental Setup: HEK293 cells
IC50 values by entry

CC/C=C\[C@H](O)[C@H](O)C1=C(C)C(=O)[C@]2(O1)C(=O)N[C@](OC)(C(=O)c1ccccc1)[C@H]2O [pseurotin A2] : > 50 µM

Query compound follows.
stdin: If you can, please state the reported IC50 value of CCc1ccc(C2=C(C)C(=O)C3(O2)C(=O)NC(OC)(C(=O)c2ccccc2)C3O)o1 (centres unmarked) [azaspirofuran A] .
stdout: > 50 µM

====

- System: SHSY5Y cells
- Experiment Description: Cell viability MTT assay, SHSY5Y cells
- Format: cell-based, human
- Experimental Setup: 24 h incubation, read-out: Cytotoxicity SHSY5Y cells IC50
Parameter Measured: IC50 (µM)
Write the value in µM as a bare number.

stdin: Item CC/C=C\[C@H](O)[C@H](O)C1=C(C)C(=O)[C@]2(O1)C(=O)N[C@](OC)(C(=O)c1ccccc1)[C@H]2O has what recorded IC50?
stdout: 17.9

====

Reported values of MTC (maximum tolerated concentration) for individual entries
- System: zebrafish larvae
- Experiment Description: Zebrafish toxicity evaluation (maximum tolerated concentration)
- Format: in vivo, Danio rerio
- Experimental Setup: up to 18 hours exposure, 100 μg/mL used where no MTC was reached

Known MTC (maximum tolerated concentration) results, listed for orientation:
CC/C=C\[C@H](O)[C@H](O)C1=C(C)C(=O)[C@]2(O1)C(=O)N[C@](O)(C(=O)c1ccccc1)[C@@H]2O [pseurotin F1] : 50 µg/mL
CCC(O)C=C[C@H](O)C1=C(C)C(=O)[C@]2(O1)C(=O)N[C@@](OC)(C(=O)c1ccccc1)[C@@H]2O (stereo partly shown) [pseurotin D] : 100 µg/mL
CCc1ccc(C2=C(C)C(=O)[C@]3(O2)C(=O)N[C@@](O)(C(=O)c2ccccc2)[C@@H]3O)o1 [azaspirofuran B] : 12.5 µg/mL
CC/C=C\[C@H](O)[C@H](O)C1=C(C)C(=O)[C@]2(O1)C(=O)N[C@@](OC)(C(=O)c1ccccc1)[C@@H]2O [pseurotin A] : 100 µg/mL
CC/C=C\[C@H](O)[C@H](O)C1=C(C)C(=O)[C@]2(O1)C(=O)N[C@](OC)(C(=O)c1ccccc1)[C@H]2O [pseurotin A2] : 12.5 µg/mL

stdin: Entry CC/C=C\C(OC(=O)c1ccccc1N)C(O)C1=C(C)C(=O)C2(O1)C(=O)NC(OC)(C(=O)c1ccccc1)C2O (stereo not shown) [11-anthranilyl-Pseurotin A] has what MTC (maximum tolerated concentration)?
stdout: 100 µg/mL

stdin: Another molecule to check: CCc1ccc(C2=C(C)C(=O)C3(O2)C(=O)NC(OC)(C(=O)c2ccccc2)C3O)o1 (stereo not shown) [azaspirofuran A]
stdout: 12.5 µg/mL

====

- Assay System: CYP3A4 (Homo sapiens, UniProt P08684)
- Construct: containing Human Liver Microsomes (HLM) (0.5 mg/mL); from tissue; host or cells: human liver microsomes
- Sequence (P08684 whole entry): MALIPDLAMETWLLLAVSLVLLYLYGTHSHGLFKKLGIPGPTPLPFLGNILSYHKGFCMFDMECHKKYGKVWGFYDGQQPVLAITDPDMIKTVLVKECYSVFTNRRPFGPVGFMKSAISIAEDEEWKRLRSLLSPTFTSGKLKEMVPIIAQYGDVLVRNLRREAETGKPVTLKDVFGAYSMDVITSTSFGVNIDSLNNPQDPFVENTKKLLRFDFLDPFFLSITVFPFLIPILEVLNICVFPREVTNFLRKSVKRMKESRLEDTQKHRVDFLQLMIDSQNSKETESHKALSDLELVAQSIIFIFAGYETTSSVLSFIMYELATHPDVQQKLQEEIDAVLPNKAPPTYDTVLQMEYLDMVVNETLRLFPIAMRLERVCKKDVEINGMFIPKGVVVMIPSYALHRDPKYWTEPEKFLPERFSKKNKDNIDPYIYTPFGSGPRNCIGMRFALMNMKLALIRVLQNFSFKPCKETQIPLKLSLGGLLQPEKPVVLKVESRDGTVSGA
- Experiment Description: CYP450 enzyme inhibition assay, CYP3A4
- Assay type: in vitro ADME
- Experimental Setup: human liver microsomes, testosterone probe
pIC50: −log10 of the molar value.
Listing of entries alongside the reported pIC50.

CCc1ccc(C2=C(C)C(=O)C3(O2)C(=O)NC(OC)(C(=O)c2ccccc2)C3O)o1 (centres unmarked) [azaspirofuran A] : < 4.06

Now examine the next entry.
stdin: CYP3A4 (Homo sapiens, UniProt P08684) / pIC50 / CC/C=C\[C@H](O)[C@H](O)C1=C(C)C(=O)[C@]2(O1)C(=O)N[C@](OC)(C(=O)c1ccccc1)[C@H]2O [pseurotin A2] : value?
stdout: < 4.06
